Data credit: patent US20120252741A1

# Tested on: Enterococcus faecalis 101 (ATCC 29212)
# TEST_NAME: MIC, broth microdilution, EFc 101
# Assay type: cell-based
# MEASUREMENT_SETUP: Enterococcus faecalis, ATCC29212; Table 2; in the presence of 0.002% Polysorbate 80; class symbols; read-out: MIC E FC 101
Recorded measurements of MIC, one per entry
METRIC: MIC

[[record]]
molecule = "CNCCOc1cc(C(=O)NC(=O)C[C@@H]2NC(=O)[C@H](NC(=O)[C@@H](CC(C)C)NC)[C@H](O)c3ccc(c(Cl)c3)Oc3cc4cc(c3O[C@@H]3O[C@H](CO)[C@@H](O)[C@H](O)[C@H]3O)Oc3ccc(cc3Cl)[C@@H](O)[C@@H]3NC(=O)[C@H](NC(=O)[C@@H]4NC2=O)c2ccc(O)c(c2)-c2c(O)cc(O)cc2[C@@H](C(=O)NC2C4CC5CC(C4)CC2C5)NC3=O)cc(OCCNC)c1OCCNC (stereo partly drawn)"
metric = "MIC"
recorded_value = "1 to 2 mg/L"

[[record]]
molecule = "CCNCCOCc1cc(OCCNCC)cc(C(=O)NC(=O)C[C@@H]2NC(=O)[C@H](NC(=O)[C@@H](CC(C)C)NC)[C@H](O)c3ccc(c(Cl)c3)Oc3cc4cc(c3O[C@@H]3O[C@H](CO)[C@@H](O)[C@H](O)[C@H]3O[C@H]3C[C@](C)(N)[C@H](O)[C@H](C)O3)Oc3ccc(cc3Cl)[C@@H](O)[C@@H]3NC(=O)[C@H](NC(=O)[C@@H]4NC2=O)c2ccc(O)c(c2)-c2c(O)cc(O)cc2[C@@H](C(=O)NC2C4CC5CC(C4)CC2C5)NC3=O)c1 (stereo partly drawn)"
metric = "MIC"
recorded_value = "0.01 to 0.5 mg/L"

[[record]]
molecule = "CNCCOc1ccc(C(=O)NC(=O)C[C@@H]2NC(=O)[C@H](NC(=O)[C@@H](CC(C)C)NC)[C@H](O)c3ccc(c(Cl)c3)Oc3cc4cc(c3O[C@@H]3O[C@H](CO)[C@@H](O)[C@H](O)[C@H]3O[C@H]3C[C@](C)(N)[C@H](O)[C@H](C)O3)Oc3ccc(cc3Cl)[C@@H](O)[C@@H]3NC(=O)[C@H](NC(=O)[C@@H]4NC2=O)c2ccc(O)c(c2)-c2c(O)cc(O)cc2[C@@H](C(=O)NC2C4CC5CC(C4)CC2C5)NC3=O)cc1 (stereo partly drawn)"
metric = "MIC"
recorded_value = "0.01 to 0.5 mg/L"

[[record]]
molecule = "CCCCCCC(C)C(=O)NC(=O)C[C@@H]1NC(=O)[C@H](NC(=O)[C@@H](CC(C)C)NC)[C@H](O)c2ccc(c(Cl)c2)Oc2cc3cc(c2O[C@@H]2O[C@H](CO)[C@@H](O)[C@H](O)[C@H]2O[C@H]2C[C@](C)(N)[C@H](O)[C@H](C)O2)Oc2ccc(cc2Cl)[C@@H](O)[C@@H]2NC(=O)[C@H](NC(=O)[C@@H]3NC1=O)c1ccc(O)c(c1)-c1c(O)cc(O)cc1[C@@H](C(=O)NC1C3CC4CC(C3)CC1C4)NC2=O (stereo partly drawn)"
metric = "MIC"
recorded_value = "0.01 to 0.5 mg/L"

[[record]]
molecule = "CN[C@H](CC(C)C)C(=O)N[C@H]1C(=O)N[C@@H](CC(=O)NC(=O)c2ccc(OCCN)c(OCCN)c2)C(=O)N[C@H]2C(=O)N[C@H]3C(=O)N[C@H](C(=O)N[C@H](C(=O)NC4C5CC6CC(C5)CC4C6)c4cc(O)cc(O)c4-c4cc3ccc4O)[C@H](O)c3ccc(c(Cl)c3)Oc3cc2cc(c3O[C@@H]2O[C@H](CO)[C@@H](O)[C@H](O)[C@H]2O[C@H]2C[C@](C)(N)[C@H](O)[C@H](C)O2)Oc2ccc(cc2Cl)[C@H]1O (stereo partly drawn)"
metric = "MIC"
recorded_value = "0.01 to 0.5 mg/L"

[[record]]
molecule = "CCOc1ccc(C(=O)NC(=O)C[C@@H]2NC(=O)[C@H](NC(=O)[C@@H](CC(C)C)NC)[C@H](O)c3ccc(c(Cl)c3)Oc3cc4cc(c3O[C@@H]3O[C@H](CO)[C@@H](O)[C@H](O)[C@H]3O[C@H]3C[C@](C)(N)[C@H](O)[C@H](C)O3)Oc3ccc(cc3Cl)[C@@H](O)[C@@H]3NC(=O)[C@H](NC(=O)[C@@H]4NC2=O)c2ccc(O)c(c2)-c2c(O)cc(O)cc2[C@@H](C(=O)NC2C4CC5CC(C4)CC2C5)NC3=O)cc1 (stereo partly drawn)"
metric = "MIC"
recorded_value = "0.01 to 0.5 mg/L"

[[record]]
molecule = "CN[C@H](CC(C)C)C(=O)N[C@H]1C(=O)N[C@@H](CC(=O)NC(=O)c2ccc(OCCOC)cc2)C(=O)N[C@H]2C(=O)N[C@H]3C(=O)N[C@H](C(=O)N[C@H](C(=O)NC4C5CC6CC(C5)CC4C6)c4cc(O)cc(O)c4-c4cc3ccc4O)[C@H](O)c3ccc(c(Cl)c3)Oc3cc2cc(c3O[C@@H]2O[C@H](CO)[C@@H](O)[C@H](O)[C@H]2O[C@H]2C[C@](C)(N)[C@H](O)[C@H](C)O2)Oc2ccc(cc2Cl)[C@H]1O (stereo partly drawn)"
metric = "MIC"
recorded_value = "0.01 to 0.5 mg/L"

[[record]]
molecule = "CN[C@H](CC(C)C)C(=O)N[C@H]1C(=O)N[C@@H](CC(=O)NC(=O)c2ccc(OC)cc2)C(=O)N[C@H]2C(=O)N[C@H]3C(=O)N[C@H](C(=O)N[C@H](C(=O)NC4C5CC6CC(C5)CC4C6)c4cc(O)cc(O)c4-c4cc3ccc4O)[C@H](O)c3ccc(c(Cl)c3)Oc3cc2cc(c3O[C@@H]2O[C@H](CO)[C@@H](O)[C@H](O)[C@H]2O[C@H]2C[C@](C)(N)[C@H](O)[C@H](C)O2)Oc2ccc(cc2Cl)[C@H]1O (stereo partly drawn)"
metric = "MIC"
recorded_value = "0.01 to 0.5 mg/L"

[[record]]
molecule = "CNCCOc1ccc(C(=O)NC(=O)C[C@@H]2NC(=O)[C@H](NC(=O)[C@@H](CC(C)C)NC)[C@H](O)c3ccc(c(Cl)c3)Oc3cc4cc(c3O[C@@H]3O[C@H](CO)[C@@H](O)[C@H](O)[C@H]3O)Oc3ccc(cc3Cl)[C@@H](O)[C@@H]3NC(=O)[C@H](NC(=O)[C@@H]4NC2=O)c2ccc(O)c(c2)-c2c(O)cc(O)cc2[C@@H](C(=O)NC2C4CC5CC(C4)CC2C5)NC3=O)cc1OCCNC (stereo partly drawn)"
metric = "MIC"
recorded_value = "0.5 to 1 mg/L"

